- Measurement target: rat hepatic microsomal HMG CoA reductase (Rattus norvegicus, UniProt P51639)
- Construct: rat hepatic microsomal HMG CoA reductase; from tissue; host or cells: rat liver microsomes
- Sequence (P51639 1-887): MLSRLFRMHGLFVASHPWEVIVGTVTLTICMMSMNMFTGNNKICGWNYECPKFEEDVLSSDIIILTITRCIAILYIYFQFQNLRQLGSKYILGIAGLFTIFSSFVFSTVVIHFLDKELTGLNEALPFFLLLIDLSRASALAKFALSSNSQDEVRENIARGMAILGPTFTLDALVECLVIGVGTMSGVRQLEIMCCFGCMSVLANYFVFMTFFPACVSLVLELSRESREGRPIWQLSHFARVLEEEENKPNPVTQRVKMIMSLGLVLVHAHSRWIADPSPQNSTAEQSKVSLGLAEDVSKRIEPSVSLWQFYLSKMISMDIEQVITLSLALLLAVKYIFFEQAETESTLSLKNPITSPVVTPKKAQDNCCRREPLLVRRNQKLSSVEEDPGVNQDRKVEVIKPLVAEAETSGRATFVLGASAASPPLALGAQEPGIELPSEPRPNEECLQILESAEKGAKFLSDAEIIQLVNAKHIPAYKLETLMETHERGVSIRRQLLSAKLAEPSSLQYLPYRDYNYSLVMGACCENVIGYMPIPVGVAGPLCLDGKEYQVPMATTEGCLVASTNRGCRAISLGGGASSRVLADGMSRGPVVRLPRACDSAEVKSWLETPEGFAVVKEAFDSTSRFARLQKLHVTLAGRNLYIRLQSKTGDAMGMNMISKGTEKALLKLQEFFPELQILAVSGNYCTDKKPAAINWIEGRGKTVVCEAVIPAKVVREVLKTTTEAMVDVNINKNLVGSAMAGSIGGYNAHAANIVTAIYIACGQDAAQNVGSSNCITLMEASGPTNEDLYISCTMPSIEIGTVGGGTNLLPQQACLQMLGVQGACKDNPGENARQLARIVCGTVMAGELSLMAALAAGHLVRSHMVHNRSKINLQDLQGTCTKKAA
- Measurement protocol: inhibition of rat hepatic microsomal HMG CoA reductase activity in vitro (Table I)
- Type: biochemical
- Conditions: 0.082 micrograms/ml
- Source text: In the table the concentrations of the test compounds are expressed in micrograms/ml.
Recorded endpoint: inhibition at 0.082 µg/mL (%)

Take a look at these entries with their results.
INSERT INTO results (compound, assay_result) VALUES
  ('O=C1C[C@H](O)C[C@@H](/C=C/c2c(-c3ccc(F)cc3)c3ccccc3c(=O)n2CC2CC2)O1 [X]', 16),
  ('CC(C)c1c(/C=C/[C@@H](O)C[C@@H](O)CC(=O)O)n(-c2ccc(F)cc2)c(=O)c2ccccc12 [AG]', 57),
  ('CC(C)n1c(CC[C@@H]2C[C@@H](O)CC(=O)O2)c(-c2ccc(F)cc2)c2ccccc2c1=O [AI]', 16),
  ('CC(C)c1c(/C=C/[C@@H]2C[C@@H](O)CC(O)O2)n(-c2ccc(F)cc2)c(=O)c2ccccc12 (mixture of isomers) [Compound M]', 27),
  ('CC(C)n1c(/C=C/[C@@H](O)C[C@@H](O)CC(=O)O)c(-c2ccc(F)cc2)c2ccccc2c1=O [AF]', 38),
  ('Cc1cc(-n2c(/C=C/[C@@H]3C[C@@H](O)CC(=O)O3)c(C(C)C)c3ccccc3c2=O)ccc1F [P]', 27),
  ('CC(C)c1c(/C=C/[C@@H]2C[C@@H](O)CC(=O)O2)n(C2CCCCC2)c(=O)c2ccccc12 [Z]', 50),
  ('COC(=O)C[C@H](O)C[C@H](O)/C=C/c1c(-c2ccc(F)cc2)c2ccccc2c(=O)n1C(C)C [Compound J]', 28),
  ('CC(C)n1c(/C=C/[C@@H]2C[C@@H](O)CC(=O)O2)c(-c2ccc(F)cc2)c2ccccc2c1=O [H]', 49);

P. CC(C)n1c(/C=C/C2CC(O)CC(=O)O2)c(-c2ccc(F)cc2)c2ccccc2c1=O (stereo not shown) [Compound G]
Q. CC(C)c1c(/C=C/[C@@H]2C[C@@H](O)CC(=O)O2)n(-c2ccc(F)cc2)c(=O)c2ccccc12 [Compound I]
R. CC(C)c1c(/C=C/[C@@H]2C[C@@H](O)CC(=O)O2)n(-c2ccc(Cl)cc2)c(=O)c2ccccc12 [R]
S. CC(C)c1c(CC[C@@H]2C[C@@H](O)CC(=O)O2)n(-c2ccc(F)cc2)c(=O)c2ccccc12 [AH]
Endpoint returns the given compounds ordered by ascending inhibition at 0.082 µg/mL. Use the labels to give the ranking in the order requested.
P, R, S, Q
(P: 14%, R: 21%, S: 33%, Q: 48%)

The reported measurements were obtained from patent US5004747A.
